Below, each entry is listed alongside its reported melting point.

Molecule: Cc1cccc(C(=O)c2ccc(OCCOc3ccc(C(=O)c4cccc(C)c4)cc3)cc2)c1
Reported Result: 164 to 167 °C

Query: Report melting point for O=C(O)Cn1cc2c(=O)n3c(nc2n1)SCC3 please.
Result: 276 °C

Query: Need melting point of CC(=O)Nc1ccc(-c2cccc(C3=NCC(C)(C)c4ccc5c(c43)CC(C)(C)O5)c2)cc1 , thanks.
Result: 246 to 249 °C

Query: Name the reported melting point value associated with the molecule COc1cc(SC#N)cc(C#N)c1N
Result: 121 to 122 °C

Query: Given the entry CCc1cc(C)cc(CC)c1C1C(=O)C2=CC(CCC(C)=NOC)CC2C1=O (stereo not given) , report its measured melting point.
Result: 79 to 80 °C

Recorded values, source a melting point compilation (Tetko et al.; mined from patent text by program, amines drawn as free bases though some values may be those of a salt).
